System: HT-29
Assay summary: Cytotoxicity against human HT-29 cells assessed as reduction in cell viability measured after 24 hrs by MTT assay
Format: functional, cell-based
Condition context: HT-29, 24 h
Readout label: IC50 (µM)
One number for each entry, in µM.

>>> numeric_result("COc1cc(Nc2cc3c(cc2C(=O)NN)OCO3)cc(OC)c1OC")
0.53

Quick batch: IC50 for everything below.
1. COc1c(Br)cc(Nc2cc3c(cc2C(=O)O)OCO3)cc1Br
2. COC(=O)c1cc2c(cc1Nc1cc(OC)c(OC)c(OC)c1)OCCO2
3. COC(=O)c1cc2c(cc1Nc1ccc3c(c1)OCO3)OCCO2

Given back:
1. 3.13
2. 0.023
3. 4.61

###

Assay summary: Inhibition of porcine brain tubulin polymerization measured at 1 min interval for 60 mins by fluorescence assay
Set-up: species or system Sus scrofa
Readout label: pIC50
One number for each entry, as −log10 of the molar value.

>>> numeric_result("COC(=O)c1cc2c(cc1Nc1cc(OC)c(OC)c(OC)c1)OCCO2")
5.96

Now for the compound whose pIC50 we want.
Asked: Any idea what its pIC50 is? The compound is COc1ccc(/C=C\c2cc(OC)c(OC)c(OC)c2)cc1O [COMBRETASTATIN A4]
Given back: 5.92

###

Record form. Attribute: AUC. Fill in for each entry.
Assay summary: AUC in Sprague-Dawley rat at 10 mg/kg, iv by HPLC-MS/MS analysis
Type: ADME, organism-based
Parameters: dose 10 mg/kg, route iv
Condition context: in vivo
Answers are plain numbers, in µg/L.hr.

>>> numeric_result("COC(=O)c1cc2c(cc1Nc1cc(OC)c(OC)c(OC)c1)OCCO2")
5670

Asked: Any idea what its AUC is? The molecule is COc1cc([C@@H]2c3cc4c(cc3[C@H](O)[C@H]3COC(=O)[C@H]23)OCO4)cc(OC)c1OC [PODOFILOX]
Given back: 2950

###

Tested on: HT-29
Assay summary: Cytotoxicity against human HT-29 cells assessed as reduction in cell viability measured after 24 hrs by MTT assay
Type: functional, cell-based
Condition context: HT-29, 24 h
Record form. Attribute: IC50. Fill in for each entry.
Answers are plain numbers, in µM.

>>> numeric_result("COc1ccc(/C=C\\c2cc(OC)c(OC)c(OC)c2)cc1O")
0.43
>>> numeric_result("COC(=O)c1cc2c(cc1Nc1ccc3c(c1)OCCO3)OCCO2")
4.64
>>> numeric_result("COC(=O)c1cc2c(cc1Nc1cc(F)c(OC)c(F)c1)OCO2")
8.53

Quick batch: IC50 for everything below.
1. COC(=O)c1cc2c(cc1Nc1cc(Br)c(OC)c(Br)c1)OCO2
2. CC(=O)O[C@H]1C(=O)[C@@]2(C)[C@H]([C@H](OC(=O)c3ccccc3)[C@]3(O)C[C@H](OC(=O)[C@H](O)[C@@H](NC(=O)c4ccccc4)c4ccccc4)C(C)=C1C3(C)C)[C@]1(OC(C)=O)CO[C@@H]1C[C@@H]2O
3. COc1cc2c(c(OC)c1OC)-c1ccc(OC)c(=O)cc1[C@@H](NC(C)=O)CC2
4. COC(=O)c1cc2c(cc1Nc1cc(OC)c(OC)c(OC)c1)OCO2

Given back:
2.02
0.011
0.25
0.38
